Molecular target: T1, human BCMA expressed on cells (human, UniProt Q02223 1-184)
T1 construct: the cell line is named under assay; also called wildtype human BCMA
T1 sequence: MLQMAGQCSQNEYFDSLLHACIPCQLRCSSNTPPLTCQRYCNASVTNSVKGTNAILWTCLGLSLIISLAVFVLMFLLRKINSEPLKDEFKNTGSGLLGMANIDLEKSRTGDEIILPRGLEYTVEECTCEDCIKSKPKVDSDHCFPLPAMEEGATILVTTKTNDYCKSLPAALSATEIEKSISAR
Assay: flow cytometry, hybridoma supernatant, HEK293T cells stably expressing human BCMA
Quantity Measured: % Parent (percent positive cells) (%)

* 539-SP5-D7 (antibody produced by the hybridoma) (antibody, V domains shown, Mouse antibody from B cell hybridoma (culture supernatant or IgG purified from it)) VH: EVMLVDSGGNLVKPGGSLKLSCAASGFTFSNYVISWVRQTPEKRLEWVATISTVGTNTYYPDSVRGRFTISRDNAENTLYLQMSSLRSEDTAIYYCSRHKYGYDDPSYAMDYWGQGTSVTVSS VL: QLVLTQSSSASFSLGASAKLTCTLSSQHSTYTIEWYQQQPLKPPKYVMELKKDGSHSTGDGIPDRFSGSSSGADRYLSISNIQAEDEAIYICGVGDTVKEQFVYVFGGGTKVTVL | 76.2
* 552-LN2-E6 (antibody produced by the hybridoma) (antibody, V domains shown, Mouse antibody from B cell hybridoma (culture supernatant or IgG purified from it)) VH: QIQLVQSGPELKKPGETVKISCMASGYTFTDYSVRWVKQAPGKGLEWMGWINTETGEPTYADDFKGRFAFSLETSASTAYLQINNLKNEDTATYFCAISYYYALDYWGHGTSVTVSS VL: DIVLTQSPASLTVSLGQRATISCRASKSVSTSVYSFLHWYQQKPGQPPKLLIYLASNLESGVPARFSGSGSGTDFTLNIHPVEEEDAATYYCQHSRELPRTFGGGTKLEIK | 60.8
* 552-LN1-F4 (antibody produced by the hybridoma) (antibody, V domains shown, Mouse antibody from B cell hybridoma (culture supernatant or IgG purified from it)) VH: QIQLVQSGPELKKPGETVKISCMASGYTFTDYSVRWVKQAPGKGLEWMGWINTETGEPTYAHDFKGRFAFSLETSASTAYLQINNLKDEDTSTYFCAISYYYALDYWGHGTSVTVSS VL: DIVLTQSPASLTVSLGQRATISCRASKSVSTSGYNFLHWYQQKPGQPPKLLIYLASNLESGAPARFSGSGSGTDFTLNIHPVEEEDAATYYCQHSRELPRTFGGGTKLEIK | 66.4
